Tested on: HOP-92 NSCLC
test-details: NCI tumour cell line growth inhibition, 48 h
value-type: TGI

// solved cases for TGI follow
compound	value-type	obs-value
CC(C)[Si](OC1=CCCCCC12C(=O)N(C)c1ccccc12)(C(C)C)C(C)C (stereo unspecified)	TGI	30.8 µM
COc1cc2c(c(OC)c1OC)C(=O)CC2N (stereo unspecified)	TGI	> 100 µM
Nc1cccc(OCc2nc(N)nc(N)c2-c2ccc(Cl)cc2)c1	TGI	> 100 µM
CC1(C)OCN(c2ccc(Cl)cc2)Cn2c1nc1ccccc12	TGI	> 100 µM

Required: TGI, one value per compound below.
1. CC(=O)OC[C@@]12C[C@H]3C(=O)C(C)(C)C[C@H]3[C@]1(C)[C@@H](OC(C)=O)[C@]1(O)[C@H]([C@@H](OC(=O)c3ccccc3)[C@@H](C)[C@H]1OC(C)=O)[C@H]2OC(C)=O
2. CC(C)(C)OC(=O)NC(Cc1ccc([N+](=O)[O-])cc1)C(=O)NC(CCCCNC(=O)OCc1ccccc1)C(=O)ON1C(=O)CCC1=O (stereo unspecified)
3. COc1cccc(C2C(C(=O)Nc3cc(=O)n(C)c(=O)n3C)=C(C)NC(C)=C2C(=O)Nc2cc(=O)n(C)c(=O)n2C)c1O
4. O/N=C\c1cc(O)c(O)c(/C=N/O)c1

Result:
["> 20 µM", "> 100 µM", "> 100 µM", "> 100 µM"]

###

Test system: SNB-75 CNS
test-details: NCI tumour cell line growth inhibition, 48 h
value-type: TGI

compound	assayed-system	TGI
Cc1ccc(NC(=O)C(=O)Cc2nc3ccccc3o2)c(C)c1	SNB-75 CNS	> 100 µM

Lab note: each compound below needs its TGI filled in.
1. CC1OC(O)C(O)C(O)C1O (stereo not drawn)
2. c1ccc(-c2cc(-c3cc(-c4ccccc4)n(-c4ccccc4)n3)nn2-c2ccccc2)cc1
3. O=[As](O)(O)c1ccc(Cc2ccc([As](=O)(O)O)cc2)cc1
4. Cc1cc(=Nc2ccc3c(c2)c(N)cc(C)[n+]3C)nc(N)n1C
5. Cc1nc(C(N)=S)sc1C(=O)/C=C/c1cccc(O)c1

Result:
["> 100 µM", "> 100 µM", "3.12 µM", "> 100 µM", "> 100 µM"]

###

System: NCI/ADR-RES ovarian
test-details: NCI tumour cell line growth inhibition, 48 h
value-type: TGI

In the examples that follow, each entry is paired with its recorded TGI.
molecule	assayed-system	TGI
CCC(=O)NCCc1c[nH]c2ccc(OC)cc12	NCI/ADR-RES ovarian	> 100 µM
CC/C=C\CCC/C=C1/C(=O)C=C[C@@H]1C/C=C\CCCC(=O)O	NCI/ADR-RES ovarian	11.8 µM
CC(C)[Si](OC1=CCCCCC12C(=O)N(C)c1ccccc12)(C(C)C)C(C)C (centres undefined)	NCI/ADR-RES ovarian	42.8 µM
CC(=O)Oc1cccc2c1C(=O)c1c(OC(C)=O)cc(C)cc1C2=O	NCI/ADR-RES ovarian	> 100 µM

Respectfully, I request TGI for each entry included below.
1. Nc1c(C(=O)c2ccccc2)[nH]c(NCc2ccccc2)c1C(=S)Nc1ccccc1
2. CC(C)(C)OC(=O)NC(Cc1ccc([N+](=O)[O-])cc1)C(=O)NC(CCCCNC(=O)OCc1ccccc1)C(=O)ON1C(=O)CCC1=O (centres undefined)
3. CCNCC(O)c1ccc(N)c([N+](=O)[O-])c1 (centres undefined)
4. CCOC(=O)CCC(NC(=O)OCc1ccccc1)C(=O)NC(CCC(=O)OCC)C(=O)NC(CCC(=O)OCC)C(=O)NC(CCC(=O)OCC)C(=O)NC(CCC(=O)OCC)C(=O)OCC (centres undefined)
5. O=C(O)CCC1(c2ccccc2)NC(=O)NC1=O (centres undefined)

Result:
1. > 100 µM
2. > 100 µM
3. > 100 µM
4. > 100 µM
5. > 100 µM

###

Field: TGI. Provide a value for each of the molecules that follow.
Test system: SF-295 CNS
test-details: NCI tumour cell line growth inhibition, 48 h

Below, each entry is followed by its recorded TGI result.
molecule	assayed-system	obs-value
COc1ccc2c(c1)CC[C@@H]1C2CC[C@]2(C)C(=O)NC(=O)CC12 (stereo not given in full)	SF-295 CNS	> 100 µM
COc1ccc2c(c1)OC13Oc4cc(OC)ccc4C=C1CCCC3=C2	SF-295 CNS	> 100 µM
CN(/N=C\c1ccc2ccccc2c1)C1=NCCCCN1	SF-295 CNS	33.5 µM
CC(=O)OC[C@@]12C[C@H]3C(=O)C(C)(C)C[C@H]3[C@]1(C)[C@@H](OC(C)=O)[C@]1(O)[C@H]([C@@H](OC(=O)c3ccccc3)[C@@H](C)[C@H]1OC(C)=O)[C@H]2OC(C)=O	SF-295 CNS	> 20 µM

Give TGI for all molecules that follow.
1. COc1ccc(C2S/C(=C\c3ccc(OC)cc3OC)C(=O)N2NC(=O)Cc2ccccc2)cc1 (stereo not given)
2. COC(=O)CCC1=C(C)c2cc3[n-]c(cc4nc(cc5[n-]c(cc1n2)c(CCC(=O)OC)c5C)C=C4C)cc3C.[Cd+2]
3. COc1cc(C2C(C#N)=C(N)OC3=C2C(=O)c2ccccc2C3=O)cc(OC)c1OC (stereo not given)
4. O=C(NC(Nc1ccc(F)c(Cl)c1)(C(F)(F)F)C(F)(F)F)C(C(F)(F)F)C(F)(F)F

Result:
> 100 µM
77 µM
24.8 µM
> 100 µM

For every item below, please supply its TGI.
1. Cc1cc2c(-c3ccccc3)cc(=O)[nH]c2cc1N
2. CCCCCCCSCC(O)COC(c1ccccc1)(c1ccccc1)c1ccccc1 (stereo not given)
3. CC1OC(=O)c2ccccc2NC1=O (stereo not given)
4. Cc1nc2c(-c3ccccc3)[nH]c(C)c2c(=O)o1
5. COCN1C(=O)[C@@H]2CCCN2C(=O)c2cc([N+](=O)[O-])ccc21
6. Cc1cc(C)c(C(=O)OC(c2ccccc2)C(c2ccccc2)N2CCOCC2)c(C)c1 (stereo not given)
7. O=C(O)c1ccccc1/C=N\NC1=NCCN1
8. Cc1nc(-c2nc([N+](=O)[O-])c([N+](=O)[O-])[nH]2)cs1

Result:
1. > 100 µM
2. > 100 µM
3. > 100 µM
4. > 100 µM
5. > 100 µM
6. > 100 µM
7. > 100 µM
8. > 100 µM

Quick batch: TGI for everything below.
1. O=C(/C=C/c1ccc(O)c(O)c1)OCCOC(=O)/C=C/c1ccc(O)c(O)c1
2. N#Cc1nc(-c2ccccc2)oc1S(=O)(=O)N1CCOCC1
3. Cn1c(=O)c2[nH]c(COc3ccc(C(C)(C)C)cc3)nc2n(C)c1=O

Result:
44.1 µM
> 100 µM
> 100 µM

Query: I'd like to know its TGI. The molecule in question is O=[N+]([O-])c1ccccc1C1N2CCCCC2[C@@H]2c3[nH]c4ccccc4c3CCN12 (stereo not given in full)
Result: 29.8 µM

###

Tested on: M14 melanoma
test-details: NCI tumour cell line growth inhibition, 48 h
Record form. Attribute: TGI. Fill in for each entry.

Each compound below has a reported value. Please supply its TGI.
1. COc1cc(C2C(C#N)=C(N)OC3=C2C(=O)c2ccccc2C3=O)cc(OC)c1OC (centres undefined)
2. O=[N+]([O-])c1ccccc1C1N2CCCCC2[C@@H]2c3[nH]c4ccccc4c3CCN12 (some centres undefined)
3. CC1(C)CC(=O)c2c(nc3ccc4ccccc4c3c2-c2ccc(NC(=O)CCCCC(=O)Nc3ccc(-c4c5c(nc6ccc7ccccc7c46)CC(C)(C)CC5=O)cc3)cc2)C1
4. O=[N+]([O-])c1ccc2c(N=Nc3c(O)ccc4ccccc34)c(O)cc(S(=O)(=O)O)c2c1
5. CCC(=O)NCCc1c[nH]c2ccc(OC)cc12
6. COc1cccc(C2C(C(=O)Nc3cc(=O)n(C)c(=O)n3C)=C(C)NC(C)=C2C(=O)Nc2cc(=O)n(C)c(=O)n2C)c1O
7. Cc1ccc(S(=O)(=O)N/N=C2\C=C[C@]3(CC2)C(=O)N(C)c2ccccc23)cc1

Result:
1: 16.1 µM; 2: 26.7 µM; 3: > 100 µM; 4: 10.5 µM; 5: > 100 µM; 6: > 100 µM; 7: > 100 µM

For the 2 compounds below, give their TGI values.
1. O=C1OC(CN2CCN(c3ccccc3)CC2)CN1C(=S)Nc1ccccc1 (centres undefined)
2. COc1ccc(C(=O)C=C2NCCN2)cc1

Result:
1. > 100 µM
2. > 100 µM

###

Test system: HOP-18 NSCLC
test-details: NCI tumour cell line growth inhibition, 48 h
value-type: TGI (µM)
Answers are plain numbers, in µM.

Answered examples (3):
> print(dat)
                                   compound  obs.value
1  CC1=C2C(c3ccccc3)(c3ccccc3)C3C=CC2(C=N3)N(C(=O)NC2CCCCC2)C1=O (configuration not stated)       34.3
2  CC(=O)Nc1ccc(-c2nnc(SCC(=O)Nc3ccc(C)cc3)o2)cc1       31.3
3          CCCCCCCCCC(=O)CC(=O)c1c(O)cccc1O       93.6

// for each compound below, give its TGI
1. Cc1ccc2[nH]c3c(C)c4ccncc4c(C)c3c2c1
2. Fc1ccccc1C1CC(C(c2ccccc2)c2ccccc2)=Nc2ccccc2S1 (configuration not stated)
3. COc1cc(CC2c3cc(OC)c(OC)cc3CCN2C)c(Oc2cc3c(cc2OC)-c2c(OC)c(OC)c(OC)c4c2C(C3)N(C)CC4)cc1OC (configuration not stated)
4. O=[N+]([O-])c1ccc(Cl)c(C2SCc3nc4ccccc4n32)c1 (configuration not stated)
5. O=c1nc2cc(-c3ccccc3)[nH]c2nn1-c1c(Cl)cc(Cl)cc1Cl
6. O=c1c([Se]c2coc3ccccc3c2=O)coc2ccccc12

Result:
4.6
31.4
31.1
67.7
44.9
29.3
